- Subject Of Test: Delta-type opioid receptor (Homo sapiens)
- Sequence (P41143 whole entry): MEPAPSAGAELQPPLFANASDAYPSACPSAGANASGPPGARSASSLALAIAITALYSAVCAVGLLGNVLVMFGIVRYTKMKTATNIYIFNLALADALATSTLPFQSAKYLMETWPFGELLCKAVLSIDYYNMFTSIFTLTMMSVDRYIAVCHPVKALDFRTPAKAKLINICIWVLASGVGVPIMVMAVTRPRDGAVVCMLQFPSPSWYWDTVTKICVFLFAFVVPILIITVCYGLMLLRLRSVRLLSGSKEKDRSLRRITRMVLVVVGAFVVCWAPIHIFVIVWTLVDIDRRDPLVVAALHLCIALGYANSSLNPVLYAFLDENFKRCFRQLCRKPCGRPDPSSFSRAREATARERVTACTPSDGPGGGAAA
- Reported Conditions: HEK293, at 0.1 to 10 µM
The source made the active and inactive calls. No cut-off for these calls is given here. Residues, ends and D or L forms follow the SMILES beside them.
Output constraint: value belongs to active, inactive

Worked examples follow.
Cc1cc(O)cc(C)c1C[C@H](NC(=O)[C@H](Cc1ccccc1)NC(=O)[C@@H]1CCCN1C(=O)[C@@H](N)Cc1c(C)cc(O)cc1C)C(N)=O (HELM PEPTIDE1{[Cc1cc(O)cc(C)c1C[C@H](N)C(=O)[*:2]].P.F.[Cc1cc(O)cc(C)c1C[C@H](N[*:1])C(=O)[*:2]].[am]}$$$$V2.0): inactive
Cc1cccc(C)c1C[C@H](NC(=O)[C@H](Cc1ccccc1)NC(=O)[C@@H]1CCCN1C(=O)[C@@H](N)Cc1c(C)cc(O)cc1C)C(N)=O: inactive
Cc1cc(O)cc(C)c1C[C@H](N)C(=O)N1CCC[C@H]1C(=O)N[C@@H](Cc1c[nH]c2ccccc12)C(N)=O (HELM PEPTIDE1{[Cc1cc(O)cc(C)c1C[C@H](N)C(=O)[*:2]].P.W.[am]}$$$$V2.0): active

I'd appreciate the recorded outcome for Cc1cc(O)cc(C)c1C[C@H](N)C(=O)N1CCC[C@H]1C(=O)N[C@@H](Cc1ccccc1)C(=O)N[C@@H](Cc1ccc2ccccc2c1)C(N)=O (HELM PEPTIDE1{[Cc1cc(O)cc(C)c1C[C@H](N)C(=O)[*:2]].P.F.[O=C([C@H](Cc1ccc2ccccc2c1)N[*:1])[*:2]].[am]}$$$$V2.0) from this test.
inactive
